System: NCI-H460
assay explanation: NCI tumour cell line growth inhibition, 48 h
Active and inactive are the calls of the source. No stated cut-off is given here; in the data, active = GI50 up to about 1.1 µM and inactive = higher.
Give your call using only these classes: active, inactive

Here's what some known entries look like.
molecule	group label
C[N+](C)(C)CC(=O)N/N=C(\Cc1nc2ccc([N+](=O)[O-])cc2nc1O)C(=O)Nc1nc2ccc([N+](=O)[O-])cc2s1	inactive
Cc1cc(C)c2c(c1)C1=NCCN1C2(O)c1ccc(Cl)cc1 (centres undefined)	inactive
O=C(C(Cl)=C(N1CCCCC1)N1CCCCC1)C(Cl)Cl	inactive

Q) I would be grateful if you could indicate the recorded call for CC(C)c1ccc(/C=C(\NC(=O)c2ccccc2)c2nc3ccccc3[nH]2)cc1 .
A) inactive

Q) I would be grateful if you could indicate the recorded call for O=C1C2c3[nH]c4ccccc4c3[C@@H]3CCCCCCCCCCC3C2C(=O)N1c1ccccc1 (some centres undefined) .
A) inactive

Q) I would be grateful if you could indicate the recorded call for N=C(N)NC(=N)Nc1ccc(S(N)(=O)=O)cc1 .
A) inactive

###

System: T47D
assay explanation: NCI tumour cell line growth inhibition, 48 h
Active and inactive are the calls of the source. No stated cut-off is given here; in the data, active = GI50 up to about 1.1 µM and inactive = higher.
Give your call using only these classes: active, inactive

Here's what some known entries look like.
> print(dat)
                                   compound  group.label
1               CC1=Nc2nc3ccccc3n2C(C)(C)C1     inactive
2  C=C1C(=O)O[C@@H]2C[C@@H]3[C@]4(CC[C@]5(C)[C@@H]([C@H](C)CC/C=C(\C)C=O)CC[C@@]35C)C[C@]4(CCC(=O)OC)[C@H]12     inactive
3  COc1cc(OC)c2c(c1)OC(c1ccccc1)CC2=O (stereo not given)     inactive

Q) I would be grateful if you could indicate the recorded call for CC(=O)OC1CC(n2cc(F)c(=O)[nH]c2=O)OC1CO (stereo not given) .
A) inactive

Q) I would be grateful if you could indicate the recorded call for CCN1C(c2ccccc2)=CC(c2ccccc2)(C(Cl)(Cl)Cl)C=C1c1ccccc1 .
A) active

Q) I would be grateful if you could indicate the recorded call for COc1ccc2nc3cc([N+](=O)[O-])ccc3c(NNc3ccccc3)c2c1 .
A) inactive

Q) I would be grateful if you could indicate the recorded call for COc1cc2nc(-c3c(F)cccc3F)n(Cc3c(F)cccc3F)c2cc1Cc1c(F)cccc1F .
A) inactive

Q) I would be grateful if you could indicate the recorded call for N=C(N)NC(=N)Nc1ccc(S(N)(=O)=O)cc1 .
A) inactive

Q) I would be grateful if you could indicate the recorded call for C=C1C(C(=O)OC)[C@H]1C(=O)OC (stereo not given in full) .
A) inactive

Q) I would be grateful if you could indicate the recorded call for NC(C(=O)O)C(O)c1c[nH]cn1 (stereo not given) .
A) inactive

###

System: HL-60
assay explanation: NCI tumour cell line growth inhibition, 48 h
Calls of active or inactive are those of the source. Rule as the data show it: active = GI50 up to about 1.1 µM and inactive = higher. Where a SMILES comes first, the peptide text is derived from it. The star is where a group is joined. Cbz = O=C(OCc1ccccc1)*; Bn = c1ccc(C*)cc1
Give your call using only these classes: active, inactive

compound	group label
O=C1CC2C(=O)N(Cc3ccccc3)C1C=C2S(=O)(=O)c1ccccc1 (stereo not drawn)	inactive
Cc1cc2c(C)nn(Cc3ccccc3)c2c(C(=O)O)c1C	inactive
Cc1[nH]nc(-c2ccon2)c1N=O	inactive
COc1ccc(C(C)c2cc3c(cc2OC)OCO3)cc1 (stereo not drawn)	active
Cc1cc2c3ccccc3n(C)c2c2c1C(=O)c1ccccc1C2=O	inactive

Q) I would be grateful if you could indicate the recorded call for CC(C)(C)OC(=O)Cc1ccc2c(ccn2Cc2ccccc2)c1 .
A) inactive

Q) I would be grateful if you could indicate the recorded call for COC(=O)NC1C(C)OC(OC2C/C=C(/C)C3C=CC4C(OC5CC(OC6CCC(OC7CC(O)C(OC8CCC(O)C(C)O8)C(C)O7)C(C)O6)C(OC(C)=O)C(C)O5)C(C)CC(C)C4C3(C)/C(O)=C3/C(=O)OC4(CC(C=O)=CC(O)C4/C=C\2C)C3=O)CC1(C)[N+](=O)[O-] (stereo not drawn) .
A) inactive

Q) I would be grateful if you could indicate the recorded call for COc1cc2c(cc1OC)[C@@H](Nc1ccc(C#N)cc1)C1COC(=O)[C@@H]1C2c1cc(OC)c(O)c(OC)c1 (stereo partly drawn) .
A) active

Q) I would be grateful if you could indicate the recorded call for O=C(CCC=C(S(=O)(=O)c1ccccc1)S(=O)(=O)c1ccccc1)c1ccccc1 .
A) inactive

Q) I would be grateful if you could indicate the recorded call for O=C1C=C(Cl)C(=O)C(c2ccc(Cl)cc2)=C1 .
A) inactive

Q) I would be grateful if you could indicate the recorded call for CC(C)=C1CCC(CN(C)C)C1=O (stereo not drawn) .
A) inactive

Q) I would be grateful if you could indicate the recorded call for CC(C)(C)C#CI1OC(=O)c2ccccc21 .
A) active

Q) I would be grateful if you could indicate the recorded call for CN1CCc2c(sc3nc(S)nc(S)c23)C1 .
A) inactive

Q) I would be grateful if you could indicate the recorded call for NNC(=S)N/N=C(/C(=O)Nc1cc(Cl)ccc1Cl)C1C(=O)Nc2ccccc2[S+]1[O-] (stereo not drawn) .
A) inactive

Q) I would be grateful if you could indicate the recorded call for COc1nc(NC2OCC(OC(C)=O)C(OC(C)=O)C2OC(C)=O)c(/N=C\C=N\c2c(NC3OCC(OC(C)=O)C(OC(C)=O)C3OC(C)=O)nc(OC)n(C)c2=O)c(=O)n1C (stereo not drawn) .
A) inactive

Q) I would be grateful if you could indicate the recorded call for CN(C)c1c([O-])c(=[N+](C)C)c1=O .
A) inactive

Q) I would be grateful if you could indicate the recorded call for O=C1CC23CC(=O)CC2(C1)c1ccccc1C3=O (stereo not drawn) .
A) inactive

Q) I would be grateful if you could indicate the recorded call for COC(=O)C1C=NNC1C(=O)OC (stereo not drawn) .
A) inactive

Q) I would be grateful if you could indicate the recorded call for CC1=NN(c2nc(N)nc(CN3CCOCC3)n2)C(C)(C)C1 .
A) inactive

Q) I would be grateful if you could indicate the recorded call for COc1c(C)c2nc3ccccc3nc2c2c(O)ccnc12 .
A) inactive

Q) I would be grateful if you could indicate the recorded call for C=C1C(=O)O[C@@H]2C[C@@H]3[C@]4(CC[C@]5(C)[C@@H]([C@H](C)CC/C=C(\C)C=O)CC[C@@]35C)C[C@]4(CCC(=O)OC)[C@H]12 .
A) active

Q) I would be grateful if you could indicate the recorded call for COC(=O)C(Cc1ccc(O)cc1)NC(=O)C(COCc1ccccc1)NC(=O)OCc1ccccc1 (stereo not drawn) (Cbz-Ser(Bn)-Tyr-OMe; configuration not given here) .
A) inactive

Q) I would be grateful if you could indicate the recorded call for N#Cc1ccnc(C(=O)N2CCCC2C(=O)O)c1 (stereo not drawn) .
A) inactive

Q) I would be grateful if you could indicate the recorded call for CC(C)(CN1CCCCC1)C(/C=C/c1ccc(Cl)c(Cl)c1)=N\NC(=O)N/N=C(/C=C/c1ccc(Cl)c(Cl)c1)C(C)(C)CN1CCCCC1 .
A) inactive

Q) I would be grateful if you could indicate the recorded call for CCCCCCCC/C=C\CCCCCCC/C=C1/C[C@](/C=C/C(=O)OC)(CO)OC1=O .
A) inactive

Q) I would be grateful if you could indicate the recorded call for CC(C)(C)c1cc(C(C)(C)C)c(SS(=O)(=O)O)c(O)c1O .
A) inactive

Q) I would be grateful if you could indicate the recorded call for O=CC1C(Cl)=Nc2nc3ccccc3n2C1c1ccc([N+](=O)[O-])cc1 (stereo not drawn) .
A) inactive

###

Tested on: HT-29
assay explanation: NCI tumour cell line growth inhibition, 48 h
Active and inactive are the calls of the source. Rule as the data show it: active = GI50 up to about 1.1 µM and inactive = higher.
property measured: GI50

Solved cases (2 shown):
> print(dat)
                                   compound       reported.value
1  Cc1ccc(NCC2CC/C(=C\c3ccc(Cl)cc3)C2=O)cc1 (stereo unspecified)   12.4 µM (inactive)
2                  CCc1nc2cc(F)ccc2[nH]c1=O  > 100 µM (inactive)

Record CC(O)C1(CNc2cc(Cl)nc(N)n2)CCCC1 (stereo unspecified) ; system HT-29; GI50 = > 100 µM (inactive)

Record CC(=O)Nc1ccc(C(=O)NN2C(=O)C(Cl)C2c2ccc(Cl)cc2)cc1 (stereo unspecified) ; system HT-29; GI50 = > 100 µM (inactive)

Record CC#Cc1c(C#CC)c(OC)c2c(c1OC)C(=O)c1ccccc1C2=O ; system HT-29; GI50 = > 100 µM (inactive)

Record NS(=O)(=O)c1cccc(NC(=S)NC(=O)Nc2ccc(Cl)c(Cl)c2)c1 ; system HT-29; GI50 = 25.9 µM (inactive)
